These entries and their values trace back to ChEMBL document CHEMBL6109115.

Assay: AUC (0 to t) in male Kunming mouse at 30 mg/kg, ip measured up to 8 hrs by LC-MS/MS analysis
Assay type: ADME, organism-based
Settings: in vivo
measurement.label: AUC(0-t) at 8 h
Write the numeric value and follow it with the unit.

Tell me the measured AUC(0-t) at 8 h of O=C(NCc1cc(Cl)ccc1F)c1cn(-c2ccccc2)c2cc(N3CCNCC3)c(F)cc2c1=O , please. 1020 ng·h/mL

----------
Assay: MRT (0 to t) in male Kunming mouse at 30 mg/kg, ip measured up to 8 hrs by LC-MS/MS analysis
Assay type: ADME, organism-based
Conditions: in vivo
measurement.label: MRT last at 8 h (h)
Give the value in h but do not write h after it.

Give its MRT last at 8 h value. Item: O=C(NCc1cc(Cl)ccc1F)c1cn(-c2ccccc2)c2cc(N3CCNCC3)c(F)cc2c1=O 3.15

----------
Test: Half life in male Kunming mouse at 30 mg/kg, ip measured upto 8 hrs by LC-MS/MS analysis
Type: ADME, organism-based
Conditions: in vivo
measurement.label: half-life (h)
Reply with just the number (in h).

Name the recorded half-life for O=C(NCc1cc(Cl)ccc1F)c1cn(-c2ccccc2)c2cc(N3CCNCC3)c(F)cc2c1=O . 3.24

----------
Experiment: AUC (0 to infinity) in male Kunming mouse at 30 mg/kg, ip measured up to 8 hrs by LC-MS/MS analysis
Format: ADME, organism-based
Settings: in vivo
measurement.label: AUC(0-inf) (ng·h/mL)
Expressed in ng·h/mL, but write only the number.

// returns reported AUC(0-inf) for input O=C(NCc1cc(Cl)ccc1F)c1cn(-c2ccccc2)c2cc(N3CCNCC3)c(F)cc2c1=O 1330

----------
Test: Cytotoxicity against pig PK-15 cells assessed as cell viability incubated for 72 hrs by CCK-8 assay
Type: toxicity, cell-based, Sus scrofa
measurement.label: CC50 at 72 h (µM)
State just the number; it will be interpreted in µM.

For the compound shown here, O=C(NCc1ccc(Cl)cc1)c1cn(C2CC2)c2cc(N3CCNCC3)c(F)cc2c1=O , give the reported CC50 at 72 h. 9.3

----------
Tested on: Suid alphaherpesvirus 1
Test: Antiviral activity against Suid alphaherpesvirus 1 infected in pig PK-15 cells assessed as inhibition of viral growth
Assay type: functional
Details: Suid alphaherpesvirus 1, in Sus scrofa
Binary call on MIC80 with cut-off 8 nM: strictly below means true (1), and equality or higher means false (0).

Dear colleague, could you confirm whether MIC80 of O=C(NCc1cc(Cl)ccc1F)c1cn(C2CC2)c2cc(N3CCNCC3)c(F)cc2c1=O falls below 8 nM? Thanks. true (1)

Consider O=C(NCc1ccc(Cl)cc1)c1cn(C2CC2)c2cc(N3CCNCC3)c(F)cc2c1=O . Does its MIC80 lie strictly below 8 nM? false (0)

Below 8 nM on MIC80? Entry O=C(NCc1cccc(Cl)c1)c1cn(C2CC2)c2cc(N3CCNCC3)c(F)cc2c1=O false (0)

Lab note: MIC80 threshold 8 nM. Does this compound come in strictly under it? O=C(NCc1cc(Cl)ccc1F)c1cn(Cc2ccccc2)c2cc(N3CCNCC3)c(F)cc2c1=O false (0)

Problem: For the compound Cn1cc(C(=O)NCc2ccc(Cl)cc2)c(=O)c2cc(CN3CCOCC3)ccc21 , is MIC80 under 8 nM? true (1)

Is MIC80 strictly under 8 nM for the entry O=C(NCc1cc(Cl)ccc1F)c1cn(-c2ccccc2)c2cc(N3CCNCC3)c(F)cc2c1=O ? true (1)
